Molecular target: human JAK1 (a.a. 837-1142) (Homo sapiens, UniProt P23458)
Sequence (P23458 849-1154): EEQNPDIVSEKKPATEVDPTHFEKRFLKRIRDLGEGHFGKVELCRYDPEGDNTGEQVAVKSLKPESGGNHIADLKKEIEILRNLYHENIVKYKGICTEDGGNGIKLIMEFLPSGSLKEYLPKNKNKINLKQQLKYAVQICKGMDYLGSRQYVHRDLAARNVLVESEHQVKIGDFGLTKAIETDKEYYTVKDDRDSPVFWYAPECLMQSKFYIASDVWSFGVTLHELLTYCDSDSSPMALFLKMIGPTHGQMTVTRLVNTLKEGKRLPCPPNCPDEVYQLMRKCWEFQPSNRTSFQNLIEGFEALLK
endpoint.label: IC50

• N#CCC1(n2cc(-c3ncnc4[nH]ccc34)cn2)CN([C@H]2CC[C@@H](Oc3cc(CN4CC[C@@H](O)C4)cc(C(F)(F)F)n3)CC2)C1 = < 10 nM
• C[C@H](NC(=O)c1cc(F)c(N2CC(CC#N)(n3cc(-c4ncnc5[nH]ccc45)cn3)C2)cc1F)C(F)(F)F = < 10 nM
• N#CCC(C1CCN(c2nc3cccnc3o2)C1)n1cc(-c2ncnc3[nH]ccc23)cn1 (single isomer, unassigned) = < 10 nM
• N#CC[C@]1(n2cc(-c3ncnc4[nH]ccc34)cn2)C[C@H](N2CCC(Oc3cc(CN4CCC[C@H]4CO)cc(C(F)(F)F)n3)CC2)C1 = < 10 nM
• C[C@@H](CO)NCc1cc(OC2CCN([C@H]3C[C@](CC#N)(n4cc(-c5ncnc6[nH]ccc56)cn4)C3)CC2)nc(C(F)(F)F)c1 = < 10 nM

IC50 of N#CCC1(n2cc(-c3ncnc4[nH]ccc34)cn2)CN([C@H]2CC[C@@H](Oc3cc(CCO)nc(C(F)(F)F)n3)CC2)C1 on human JAK1 (a.a. 837-1142) (Homo sapiens, UniProt P23458)?
< 10 nM

Continue with CCNCc1cc(O[C@H]2CC[C@@H](N3CC(CC#N)(n4cc(-c5ncnc6[nH]ccc56)cn4)C3)CC2)nc(C(F)(F)F)c1
< 10 nM

Also need C[C@H](O)CNCc1cc(OC2CCN([C@H]3C[C@](CC#N)(n4cc(-c5ncnc6[nH]ccc56)cn4)C3)CC2)nc(C(F)(F)F)c1 , thanks.
< 10 nM
